Target: Solute carrier family 22 member 2 (Homo sapiens, UniProt O15244)
Sequence (O15244 whole entry): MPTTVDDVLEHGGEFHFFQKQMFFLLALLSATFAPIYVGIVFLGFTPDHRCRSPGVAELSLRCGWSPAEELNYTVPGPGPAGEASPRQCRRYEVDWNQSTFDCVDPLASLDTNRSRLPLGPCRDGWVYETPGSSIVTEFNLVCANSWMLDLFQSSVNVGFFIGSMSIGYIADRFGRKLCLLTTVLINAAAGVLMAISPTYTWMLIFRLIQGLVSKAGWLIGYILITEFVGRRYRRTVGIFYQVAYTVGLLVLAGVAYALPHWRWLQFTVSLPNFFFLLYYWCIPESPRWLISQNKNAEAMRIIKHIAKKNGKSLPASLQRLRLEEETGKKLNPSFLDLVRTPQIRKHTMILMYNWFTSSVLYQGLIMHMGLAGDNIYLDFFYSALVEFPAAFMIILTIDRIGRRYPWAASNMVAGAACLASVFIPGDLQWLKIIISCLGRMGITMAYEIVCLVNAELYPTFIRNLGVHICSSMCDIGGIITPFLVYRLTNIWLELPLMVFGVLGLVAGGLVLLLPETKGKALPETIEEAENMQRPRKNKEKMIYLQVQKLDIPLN
Assay: TP_TRANSPORTER: uptake in OCT2-expressing HEK293 cells
Type: functional, cell-based
experimental readout: Km (µM)
Give just the numeric value; µM need not be written.

Enquiry: Consider the molecule shown here: C[n+]1ccc(-c2ccccc2)cc1 What is its recorded Km?
Return: 16
